Tested on: RARa:RXR (NR concentration 270 nM, RXRa partner concentration 90 nM)
Assay: PBM binding z-score (relative to random genomic background probes); higher = stronger binding; sequences stand for … in GC…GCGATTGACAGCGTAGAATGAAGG
I'd be grateful if you could share measured PBM binding z-score for these entries.
Write the value as a bare number.

The sequence listed as `GGAGACAGGTGAAACGCAGGTAACTCAGGGTGGC` has a reported PBM binding z-score of 0.137

sequence `GCTCGGAGGACAATGTCAGAGCTTTGTCCGTAGA` , PBM binding z-score observed: -0.772

Input `TCTAGTTAGTCAAAGGTCACACACTCGAAATGCG` . Output PBM binding z-score: 6.72

get_value(item= `CGTCCAAGGTCAAAGTCAGTGAAAGAGACTCGAA` , readout=PBM binding z-score) returns 4.01

response.value for `CCGAATGGGGCAAAGGTTACCATACTCAGTACGA` (field: PBM binding z-score) = 3.86

The sequence `TCGAGTAGGTTAGGGTCATTCAGAATGGCGTCGA` showed PBM binding z-score equal to 5.08

PBM binding z-score measured on `CAAACTAGGTCAAGGACAAAGTCGGTTTGTGCCA` = 1.91

Reported PBM binding z-score for `AGTCAAAGTTCAGGACGAGGTAACGTACAGCACG` was 3.01

Value of PBM binding z-score reported for the sequence `ATCTGTAGGTTACATCCGGGTCATTCAGGCTATG` is 3.18

Recorded PBM binding z-score (sequence `ATCGAAAGGGCGAAGGTGAGTATACCCACCCGAA` ): 1.03

// PBM binding z-score value for `CTGACTGGGGCATAAGGTTACCATAAGCCAGCCC` : 1.62

The measured PBM binding z-score associated with `CGTCAAAGTTCAACAAAGGTAACGTAAAGCACGC` reads 4.08

// field: PBM binding z-score; key: `TCGAGTAGGTTGCCAATGGGGCATTCAGCTTTCT` ; value = -0.717

Documented PBM binding z-score of `GCTTACGTGTCAAAGGTTATAGCATGAATAGAAT` : 4.56

Memo: `ACAGGCAGGTGATGAAGGTAACTCAGGCTATCAT` , reported PBM binding z-score: -0.0555

// recorded PBM binding z-score for `GTACCAAGGTGAAGAGGTCGTTGATGAGTAGGCG` : 2.68

PBM binding z-score measured on `CCTGCTAGGTCATGGTCAGCTACTCTACAGTATG` = 2.09

Measured PBM binding z-score, `GGAACGAGGGCAAAGTTGATAGCATCTGTCGACG` : 1.56

Just so you know, measured PBM binding z-score for `CCGACTGGGGCATAAGTTTACCATAAGCCAGCCC` came out at -0.262

Documented PBM binding z-score of `GCTTTCGGGTCAAAGGTTATAGCATGAATAGAAT` : 8.07

// PBM binding z-score value for `ATATGTAGGTTAGCTGGGGTCATTCTGACTAGGC` : 5.57

* * *

System: VDR homodimer (NR concentration 270 nM)
Test: PBM binding z-score (relative to random genomic background probes); higher = stronger binding; sequences stand for … in GC…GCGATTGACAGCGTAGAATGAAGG
Answer each item with its documented PBM binding z-score.
I only need the number, thanks.

Entry `CCTACTGGTCCAAAGGTCATTGATTCCAATGCTC` , tested on VDR homodimer (NR concentration 270 nM), has a reported PBM binding z-score of 2.58

GET /values?item= `GCATATAGGTAATACAAGGAGAAAGTCCGATTGT` &system= VDR homodimer (NR concentration 270 nM) returns PBM binding z-score: -0.234

For `ACTATTAGTTGACTTAGGGCAACCCATACGACGC` on VDR homodimer (NR concentration 270 nM), measured PBM binding z-score was 0.642

PBM binding z-score value, target or system VDR homodimer (NR concentration 270 nM), for `ATCGCAAGGTCGAAGGTGAGTATACCCACCCGAA` : 0.489

PBM binding z-score for VDR homodimer (NR concentration 270 nM) with input `CCTTACGGGTCACTGACAGGTTATAGCCTTTGGA` equals 1.14

Short answer on VDR homodimer (NR concentration 270 nM) for `CAAACTAGGTCACGAAATGTCAAAGTCGAATGAC` , PBM binding z-score: 1.1

Recorded PBM binding z-score for `CGTCCAAGGTCAAGGTCATTGAAAGAGACTCGAA` on VDR homodimer (NR concentration 270 nM) was 5.11

Tested on VDR homodimer (NR concentration 270 nM): `ACTAGCAGGCCAAGGGTCCCTCAAGATTAGTCCG` . Observed PBM binding z-score: -0.484

The observed PBM binding z-score for `ACAGCCAGGTGAGTGAAGGTAACTCAGCTGGACG` when tested with VDR homodimer (NR concentration 270 nM) stands at -0.751

Readout PBM binding z-score for `GCTGCTAGGTCAAGTGATGGTCAGCTAAAGCTCG` , test system VDR homodimer (NR concentration 270 nM), was -0.211

Noted PBM binding z-score for `TCTTGCAGATCAAGCAGGTTAAGAAAGCCTGAGT` , tested on VDR homodimer (NR concentration 270 nM): -0.141

Value (PBM binding z-score, VDR homodimer (NR concentration 270 nM)) for record `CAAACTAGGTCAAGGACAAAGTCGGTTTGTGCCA` = 0.988

Form: item `TCATATAGGTAAACAGGTGTAAGTCCGTAAGTTA` ; test system VDR homodimer (NR concentration 270 nM); PBM binding z-score: 0.657

Readout PBM binding z-score for `TCTTGTAGATCTAAGGTTAAGAAAGCCGAAGCCT` , test system VDR homodimer (NR concentration 270 nM), was -0.0148

Fill in: VDR homodimer (NR concentration 270 nM) PBM binding z-score for `AGTCAAAGTTCAGGTCGAGGTAACGTAAAGCACG` = 2.75

# PBM binding z-score measured on VDR homodimer (NR concentration 270 nM) for item `TAGCCTAGGTCATGGGCCCGTATACCACGCGAAC` = 0.701

Entry `AGAATGAGGTTATGAAGATCAGGGAATTGCGGTC` , VDR homodimer (NR concentration 270 nM) data, PBM binding z-score value: 0.716

Value sought: PBM binding z-score, system VDR homodimer (NR concentration 270 nM), item `GGAACGAGGGCAAGATGATAGCAGAGTTTGATGG` . Result: 1.08

Note to self: PBM binding z-score of `AGAATGAGGCTATTAAGATCAGGGAATTGCGGTC` with VDR homodimer (NR concentration 270 nM) was -0.448

Reported PBM binding z-score (VDR homodimer (NR concentration 270 nM)) for entry `GATACAGGGTCAAGGCCAGATTACGCGTATTGAT` is 2.09

Reported PBM binding z-score (VDR homodimer (NR concentration 270 nM)) for entry `CGAACTAGGTCAGAACAAGACAGTGAAGGATGAT` is 0.237

PBM binding z-score on VDR homodimer (NR concentration 270 nM) for `TCATATAGGTAAACAGGTGCAAGTCCGTAAGTTA` is 1.14

Lab entry: VDR homodimer (NR concentration 270 nM) assay, sequence `TCTTGTAGATCAAGAGAGGTTAAGAAAGTGCGCT` , PBM binding z-score = 0.194

The measured PBM binding z-score that `CGAACTAGGCCATTGACAGGACAGTGAATAGTAA` showed for VDR homodimer (NR concentration 270 nM) is -0.193

The measured PBM binding z-score that `AGAATGAGGTTATACGTAGTTCAGGGAAGAAAGT` showed for VDR homodimer (NR concentration 270 nM) is 1.61

Item `ATCGAAAGGTCGAAGGCGAGTATACCCACCCGAA` was tested on VDR homodimer (NR concentration 270 nM); the reported PBM binding z-score is 0.879

Entry `GCTAGTTGGTCAGTAAAGGGTCACACACCGGTCG` , tested on VDR homodimer (NR concentration 270 nM), has a reported PBM binding z-score of 1.74

Bench note, VDR homodimer (NR concentration 270 nM): `ATCTCTATGTAACCAAGTTCAGTGAATGCCGAAC` , PBM binding z-score reads 2.31

Form: item `GCTCGGAGGACAAGGTCTGAGCTTTGTCCGTAGA` ; test system VDR homodimer (NR concentration 270 nM); PBM binding z-score: -0.592

Reported VDR homodimer (NR concentration 270 nM) PBM binding z-score for item `CCTATTGGGCCAAAAAGGTCATTGATGCCGATAA` was 2.18

Sample `TCGAGCAGGTTACCAATGGGGCATTCAGCTTTCT` , system: VDR homodimer (NR concentration 270 nM). Its PBM binding z-score is -0.843

Lab entry: VDR homodimer (NR concentration 270 nM) assay, sequence `AGAATGAGGTGATACGTAGATCAGGGAAGAAAGT` , PBM binding z-score = -0.382

Fill in: VDR homodimer (NR concentration 270 nM) PBM binding z-score for `TCTGCTAGGTCAACGGTGGTCAGCTAATCTGCTA` = -0.606

Param item: `TTACCAAGGTGAGAGGTCGTTGATGCACGCCTTG` ; param system: VDR homodimer (NR concentration 270 nM); output PBM binding z-score: 1.66

Field PBM binding z-score (system: VDR homodimer (NR concentration 270 nM)) for entry `AGAATGAGGTTACCAAATATCAGGGAAACGCTTG` = 0.512

The measured PBM binding z-score that `CAAACTAGGTCAAGAGGGCAAAGTCCGCTTCCCG` showed for VDR homodimer (NR concentration 270 nM) is 1.78

Result for `TCTATTAGTTGATTAGGGCAAACGAAACAGCGGA` , tested on VDR homodimer (NR concentration 270 nM), PBM binding z-score: 0.435

Recorded PBM binding z-score for `GATACAGGGTCAGTTAGAGGCCAGAGTATGGAAA` on VDR homodimer (NR concentration 270 nM) was 1.51

Query `TCTGCTAGGTCAACGATGGTCAGCTAGTCTGCTA` on VDR homodimer (NR concentration 270 nM); PBM binding z-score returned: -0.544

// sequence `CCGATTGGGGCAAGGTTACCATAACGCACAGCCA` , assay VDR homodimer (NR concentration 270 nM), PBM binding z-score value: -0.398

Summary line: `TCGAGTAGGTTACCATTGGGGCATTCAGCTTTCT` , VDR homodimer (NR concentration 270 nM), reported PBM binding z-score = -0.46

PBM binding z-score value, target or system VDR homodimer (NR concentration 270 nM), for `CAAACTAGGGCACCGGAAGGTCAAAGTCCGCATG` : 1.45
